Molecular target: ERα protein (HiBiT-tagged) in ESR1_HiBiT KI MCF7 cells (Homo sapiens)
Sequence (P03372 1-595): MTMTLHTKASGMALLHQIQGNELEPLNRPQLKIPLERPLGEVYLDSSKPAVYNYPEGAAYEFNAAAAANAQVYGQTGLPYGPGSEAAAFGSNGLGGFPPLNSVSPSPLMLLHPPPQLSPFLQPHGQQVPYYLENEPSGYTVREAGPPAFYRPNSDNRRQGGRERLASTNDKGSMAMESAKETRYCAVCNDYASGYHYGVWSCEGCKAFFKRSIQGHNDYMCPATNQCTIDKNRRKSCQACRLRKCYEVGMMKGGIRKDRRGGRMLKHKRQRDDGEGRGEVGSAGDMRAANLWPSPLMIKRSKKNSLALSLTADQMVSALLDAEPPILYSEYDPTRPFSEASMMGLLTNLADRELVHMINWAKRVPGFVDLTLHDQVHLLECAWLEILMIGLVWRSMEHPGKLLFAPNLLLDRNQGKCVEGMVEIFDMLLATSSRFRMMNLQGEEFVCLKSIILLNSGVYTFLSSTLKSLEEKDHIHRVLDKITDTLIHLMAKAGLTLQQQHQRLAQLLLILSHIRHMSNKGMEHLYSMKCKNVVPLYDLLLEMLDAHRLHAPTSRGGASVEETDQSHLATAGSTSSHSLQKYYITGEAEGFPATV
Assay: Nano Glo HiBiT Lytic Degradation Assay
Type: cell-based
Details: 6 hours with compound, 14-point dose response 1:3, bell-shape curve fit, half-maximal effect of first Hill model, read-out: MCF7 ESR1 HiBiT - (DC50)
Reported Endpoint: DC50

* O=C1CC[C@H](N2Cc3cc(N4CCN(CC5CCN(c6ccc([C@H]7c8ccc(O)cc8CO[C@H]7CC7CCCC7)cc6)CC5)CC4)ccc3C2=O)C(=O)N1 (single isomer, unassigned) | 31 nM
* Cn1nc(N2CCC(=O)NC2=O)c2ccc(N3CCN(CC4CCN(c5ccc([C@@H]6c7ccc(O)cc7CO[C@@H]6c6ccccc6)cc5)CC4)CC3)cc21 | 0.99 nM
* O=C1CC[C@H](N2Cc3cc(N4CCN(CC5CCN(c6ccc([C@H]7c8ccc(O)cc8CC[C@@]78CCc7ccccc78)cc6)CC5)CC4)ccc3C2=O)C(=O)N1 (relative stereo) | 19 nM
* Cc1cc([C@@H]2OCc3cc(O)ccc3[C@@H]2c2ccc(N3CCC(CN4CCN(c5ccc6c(c5)CN([C@H]5CCC(=O)NC5=O)C6=O)CC4)CC3)cc2)ccc1F | ≥ 10000 nM
* C[C@H](C1CC1)[C@H]1CC(F)(F)c2cc(O)ccc2[C@H]1c1ccc(N2CCC(CN3CCN(c4ccc5c(c4)CN([C@H]4CCC(=O)NC4=O)C5=O)CC3)CC2)cc1 (single isomer, unassigned) | 15 nM
* O=C1CC[C@H](N2Cc3cc(N4CCN(CC5CCN(c6ccc([C@H]7c8ccc(O)cc8C(F)(F)C[C@H]7c7cc(F)ccc7F)cc6)CC5)CC4)ccc3C2=O)C(=O)N1 | 3 nM
* O=C1CCC(N2Cc3cc(N4CCN(CC5CCN(c6ccc([C@@H]7c8ccc(O)cc8CC[C@@H]7c7ccc(F)cc7)cc6)CC5)CC4)ccc3C2=O)C(=O)N1 (stereo partly shown) | 1.05 nM
* O=C1CC[C@H](N2Cc3cc(N4CCN(CC5CC6CCC(C5)N6c5ccc([C@@H]6c7ccc(O)cc7CC[C@@H]6c6ccccc6)cc5)CC4)ccc3C2=O)C(=O)N1 (single isomer, unassigned) | 2 nM
* O=C1CC[C@H](N2Cc3cc(N4CC5(CCN(CC6CCN(c7ccc([C@@H]8c9ccc(O)cc9CC[C@@H]8c8ccccc8)cc7)CC6)CC5)C4)ccc3C2=O)C(=O)N1 (single isomer, unassigned) | 0.83 nM
* O=C1CC[C@H](N2Cc3cc(N4CCN(CC5CCN(c6ccc([C@H]7c8ccc(O)cc8C(F)(F)C[C@H]7C7CCCC7)cc6)CC5)CC4)ccc3C2=O)C(=O)N1 | 959 nM

----------
Molecular target: ERα protein (HiBiT-tagged) in ESR1_HiBiT KI MCF7 cells (Homo sapiens, UniProt P03372)
Assay: Nano Glo HiBiT Lytic Degradation Assay
Assay type: cell-based
Settings: 6 hours with compound, 14-point dose response 1:3, bell-shape curve fit, half-maximal effect of first Hill model, read-out: MCF7 ESR1 HiBiT - (DC50)
Protocol: Selected compounds of the present disclosure were tested in a Nano Glo HiBiT Lytic Degradation Assay to measure the level of ERα protein degradation in MCF7 cells. Cell culture: ESR1_HiBiT KI MCF7 cells were maintained in growth media without antibiotics. […] Cell seeding: Cells were counted using a Vi-Cell and seeded in a 384-well flat-bottom microplate (cell culture-treated) at 4000 cells/well in 25 μL of growth medium using a BioTek MultiFlo Multimode Dispenser. […]
Reported Endpoint: DC50

* O=C1CC[C@H](N2Cc3cc(N4CCN(CC5CCN(c6ccc([C@@H]7c8ccc(O)cc8CO[C@@H]7c7cccc(OC(F)(F)F)c7)cc6)CC5)CC4)ccc3C2=O)C(=O)N1 | 1 nM
* C[C@@H]1Cc2cc(O)ccc2[C@@H](c2ccc(N3CCC(CN4CCN(c5ccc6c(c5)CN([C@H]5CCC(=O)NC5=O)C6=O)CC4)CC3)cc2)[C@H]1c1ccccc1 | 0.77 nM
* CC(C)C[C@H]1CC(F)(F)c2cc(O)ccc2[C@H]1c1ccc(N2CCC(CN3CCN(c4ccc5c(c4)CN([C@H]4CCC(=O)NC4=O)C5=O)CC3)CC2)cc1 | 0.49 nM
* C[C@@H]1O[C@H](C2CCCCC2)[C@@H](c2ccc(N3CCC(CN4CCN(c5ccc6c(c5)CN([C@H]5CCC(=O)NC5=O)C6=O)CC4)CC3)cc2)c2ccc(O)cc21 (single isomer, unassigned) | 22 nM
* Cn1c(=O)n([C@@H]2CCC(=O)NC2=O)c2ccc(N3CCN(CC4CCN(c5ccc([C@@H]6c7ccc(O)cc7C(F)(F)C[C@@H]6c6ccccc6)cc5)CC4)CC3)cc21 (single isomer, unassigned) | 12.1 nM
* O=C1CCC(c2ccc(N3CCN(C4CCN(c5ccc([C@@H]6c7ccc(O)cc7CC[C@@H]6c6ccccc6)cc5)CC4)CC3)cc2)C(=O)N1 (single isomer, unassigned) | 370 nM
* Cn1nc(C2CCC(=O)NC2=O)c2ccc(N3CCN(CC4CCN(c5ccc([C@@H]6c7ccc(O)cc7C(F)(F)C[C@@H]6c6ccccc6)cc5)CC4)CC3)cc21 (single isomer, unassigned) [Compound I-298] | 1 nM
* O=C1CCC(N2Cc3cc(C4CCN(CC5CCN(c6ccc([C@@H]7c8ccc(O)cc8CC[C@@H]7c7ccccc7)cc6)CC5)CC4)ccc3C2=O)C(=O)N1 (stereo partly shown) | ≥ 10000 nM
* O=C1CC[C@H](N2Cc3cc(N4CCN(CC5CCN(c6ccc([C@H]7c8ccc(O)cc8CC[C@H]7c7ccc8c(c7)CCC8)cc6)CC5)CC4)ccc3C2=O)C(=O)N1 (single isomer, unassigned) | 0.27 nM
* O=C1CCN(c2ccc(N3CC[C@@]4(CCN(CC5CCN(c6ccc([C@@H]7c8ccc(O)cc8CC[C@@H]7c7ccccc7)cc6)CC5)C4)C3)cc2)C(=O)N1 (single isomer, unassigned) | ≥ 10000 nM

----------
Target: ERα protein (HiBiT-tagged) in ESR1_HiBiT KI MCF7 cells (Homo sapiens)
Sequence (P03372 1-595): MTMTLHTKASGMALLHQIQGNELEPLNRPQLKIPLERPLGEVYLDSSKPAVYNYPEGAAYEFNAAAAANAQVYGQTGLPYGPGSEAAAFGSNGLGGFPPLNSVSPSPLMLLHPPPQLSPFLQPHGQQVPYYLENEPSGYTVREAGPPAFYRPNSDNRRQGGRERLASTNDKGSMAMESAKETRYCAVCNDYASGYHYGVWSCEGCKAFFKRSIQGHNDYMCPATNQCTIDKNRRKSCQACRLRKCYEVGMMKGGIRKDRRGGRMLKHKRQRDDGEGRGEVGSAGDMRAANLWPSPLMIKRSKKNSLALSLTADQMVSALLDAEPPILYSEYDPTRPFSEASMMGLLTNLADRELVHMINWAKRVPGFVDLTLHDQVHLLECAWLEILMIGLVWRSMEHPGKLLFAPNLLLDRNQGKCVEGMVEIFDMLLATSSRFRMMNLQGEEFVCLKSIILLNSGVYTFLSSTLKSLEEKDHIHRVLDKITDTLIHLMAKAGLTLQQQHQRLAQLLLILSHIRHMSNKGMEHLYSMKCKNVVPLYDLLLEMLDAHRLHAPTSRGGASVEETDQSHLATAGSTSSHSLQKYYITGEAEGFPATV
Experiment: Nano Glo HiBiT Lytic Degradation Assay
Format: cell-based
Conditions: 6 hours with compound, 14-point dose response 1:3, bell-shape curve fit, half-maximal effect of first Hill model, read-out: MCF7 ESR1 HiBiT - (DC50)
Items are presented alongside their recorded DC50.
Reported Endpoint: DC50 (nM)

* O=C1CC[C@H](N2Cc3cc(N4CCN(CC5CCN(c6ccc([C@@H]7c8ccc(O)cc8CC[C@@]78CCc7ccccc78)cc6)CC5)CC4)ccc3C2=O)C(=O)N1 | 0.75
* Cc1cccc([C@@H]2CCc3cc(O)ccc3[C@@H]2c2ccc(N3CCC(CN4CCN(c5ccc6c(c5)CN([C@H]5CCC(=O)NC5=O)C6=O)CC4)CC3)cc2)c1 (single isomer, unassigned) | 1.24
* O=C1CC[C@H](N2Cc3cc(N4CCN(CC5CCN(c6ccc([C@@H]7c8ccc(O)cc8CC[C@@H]7c7ccc8c(c7)CC8)cc6)CC5)CC4)ccc3C2=O)C(=O)N1 (single isomer, unassigned) | 7
* Cc1cc(N2CCC3(CCN(CC4CCN(c5ccc([C@@H]6c7ccc(O)cc7C(F)(F)C[C@@H]6c6ccccc6)cc5)CC4)C3)CC2)ccc1N1CCC(=O)NC1=O (single isomer, unassigned) | 0.28
